Here the recorded T-L Activation factor is given for each entry.
tested on: rabbit 20S proteasome, trypsin-like (T-L) activity; experiment: Rabbit 20S proteasome fluorescent assay, trypsin-like activity (Boc-LLR-amc); format: biochemical; conditions: [Compound]=100 μM, pH 7.5, 30° C.
Peptide text beside a SMILES is read from it. * marks the point of attachment. Boc = CC(C)(C)OC(=O)*; NHBn = c1ccc(CN*)cc1; NHPh = c1ccc(N*)cc1; Bn = c1ccc(C*)cc1
Number, no unit, nothing else.

Molecule	Experimental Endpoint	Experimental Value
C[C@H](NC(=O)[C@H](Cc1ccc(OCc2ccccc2)cc1)NC(=O)OC(C)(C)C)C(=O)N[C@@H](Cc1c[nH]c2ccccc12)C(=O)Nc1ccccc1 [SP303r2, N-Boc-Tyr(Bn)-Ala-Trp-NHPh] (Boc-Tyr(Bn)-Ala-Trp-NHPh)	T-L Activation factor	1.6

Data request, read-out T-L Activation factor, for CC(C)(C)OC(=O)N[C@@H](Cc1ccc(OCc2ccccc2)cc1)C(=O)N[C@@H](CCCN(C(=N)NC(=O)OCc1ccccc1)C(=O)OCc1ccccc1)C(=O)N[C@@H](Cc1c[nH]c2ccccc12)C(=O)Nc1ccccc1 [SP310C, N-Boc-Tyr(Bn)-Arg(Z)-2-Trp-NHPh]
1.6

// T-L Activation factor lookup, key: CC(C)(C)OC(=O)N[C@@H](Cc1ccc(OCc2ccccc2)cc1)C(=O)N[C@@H](CC(N)=O)C(=O)N[C@@H](Cc1c[nH]c2ccccc12)C(=O)Nc1ccccc1 [SP314C2, N-Boc-Tyr(Bn)-Asn-Trp-NHPh] (Boc-Tyr(Bn)-Asn-Trp-NHPh)
2.5

Quick check: T-L Activation factor of CC(C)C[C@H](NC(=O)[C@H](Cc1ccc(OCc2ccccc2)cc1)NC(=O)OC(C)(C)C)C(=O)N[C@@H](Cc1c[nH]c2ccccc12)C(=O)NCc1ccccc1 [A414P, N-Boc-Tyr(Bn)-Leu-Trp-NHCH2Ph] (Boc-Tyr(Bn)-Leu-Trp-NHBn) ?
1.9

----------
Target: rabbit 20S proteasome, chymotrypsin-like (CT-L) activity (Oryctolagus cuniculus, UniProt G1T4Q9)
Construct: other: 100 μM compound, pH 7.5, 30° C; other: pH 7.5, 30° C; CT-L Ki
Sequence (G1T4Q9 1-263): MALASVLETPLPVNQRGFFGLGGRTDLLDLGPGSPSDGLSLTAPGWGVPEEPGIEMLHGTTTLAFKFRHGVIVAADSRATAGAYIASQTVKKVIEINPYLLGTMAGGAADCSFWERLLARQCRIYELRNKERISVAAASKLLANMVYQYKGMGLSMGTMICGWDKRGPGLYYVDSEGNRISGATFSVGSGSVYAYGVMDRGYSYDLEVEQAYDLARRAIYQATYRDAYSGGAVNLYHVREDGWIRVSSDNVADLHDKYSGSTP
Experiment: Rabbit 20S proteasome fluorescent assay, chymotrypsin-like activity (Suc-LLVY-amc)
Format: biochemical
Details: 100 μM compound, pH 7.5, 30° C.
Peptide text beside a SMILES is read from it. * marks the point of attachment. Boc = CC(C)(C)OC(=O)*; NHBn = c1ccc(CN*)cc1; Bn = c1ccc(C*)cc1
Experimental Endpoint: inhibition at 100 µM (%)
Give your result in % as a bare value.

# example entries with known answers
Compound	Experimental Value
COC(=O)[C@H](Cc1c[nH]c2c(Br)cccc12)NC(=O)CCNC(=O)C(Cc1ccc(OC)c(I)c1)NC(=O)OC(C)(C)C (stereo partly drawn) [A493]	29
CC(C)(C)OC(=O)NCCCC[C@H](NC(=O)[C@H](Cc1ccc(OCc2ccccc2)cc1)NC(=O)OC(C)(C)C)C(=O)N[C@@H](Cc1c[nH]c2ccccc12)C(=O)Nc1ccc(O)cc1 [SP319P, N-Boc-Tyr(Bn)-Lys(Boc)-Trp-NH(4-OH)Ph]	36
CC(C)(C)OC(=O)N[C@@H](Cc1ccc(OCc2ccccc2)cc1)C(=O)N[C@@H](CC(N)=O)C(=O)N[C@@H](Cc1c[nH]c2ccccc12)C(=O)Nc1ccc(O)cc1 [SP318C, N-Boc-Tyr(Bn)-Asn-Trp-NH(4-OH)Ph]	15
COC(=O)[C@H](Cc1c[nH]c2c(Br)cccc12)NC(=O)[C@H](CC(N)=O)NC(=O)[C@H](Cc1ccc(OCc2ccccc2)c(I)c1)NC(=O)OC(C)(C)C [SP274, N-Boc-3-iodo-Tyr(Bn)-Asn-7-bromo-Trp-OMe]	62
CC(C)C[C@H](NC(=O)[C@H](Cc1ccc(OCc2ccccc2)cc1)NC(=O)OC(C)(C)C)C(=O)N[C@@H](CC1C(=O)Nc2ccccc21)C(=O)Nc1ccccc1 (stereo partly drawn) [JV602, Boc-Tyr(Bn)-Leu-Trp[O]—NHPh]	22
CNC(=O)[C@H](Cc1c[nH]c2c(Br)cccc12)NC(=O)[C@H](C)NC(=O)[C@H](Cc1ccc(OCc2ccccc2)c(I)c1)NC(=O)OC(C)(C)C [A254]	38

Look at this compound and give its reported inhibition at 100 µM. CC(C)C[C@H](NC(=O)[C@H](Cc1ccc(OCc2ccccc2)cc1)NC(=O)OC(C)(C)C)C(=O)N[C@@H](Cc1c[nH]c2ccccc12)C(=O)NCCCCNC(=O)OC(C)(C)C [SP296P, N-Boc-Tyr(Bn)-Leu-Trp-NH(CH2)4NHBoc]
22

inhibition at 100 µM for COC(=O)[C@H](Cc1c[nH]c2ccccc12)NC(=O)[C@H](C)NC(=O)[C@H](Cc1ccc(OCc2ccccc2)cc1)NC(=O)OC(C)(C)C [NR36, N-Boc-Tyr(Bn)-Ala-Trp-OCH3] (Boc-Tyr(Bn)-Ala-Trp-OMe) ?
34

Returns the measured inhibition at 100 µM for the input compound. Input: CC(C)(C)OC(=O)N[C@@H](Cc1ccc(OCc2ccccc2)cc1)C(=O)N[C@@H](CC(N)=O)C(=O)N[C@@H](Cc1c[nH]c2ccccc12)C(=O)NCc1ccccc1 [A416, N-Boc-Tyr(Bn)-Asn-Trp-NHCH2Ph] (Boc-Tyr(Bn)-Asn-Trp-NHBn)
28

----------
molecular target: rabbit 20S proteasome, post-acid (PA) activity (Oryctolagus cuniculus, UniProt A0A5F9DQW2); construct: other: 100 μM compound, pH 7.5, 30° C; other: pH 7.5, 30° C; assay: Rabbit 20S proteasome fluorescent assay, post-acid activity (Z-LLE-βNA); assay type: biochemical; conditions: 100 μM compound, pH 7.5, 30° C.
Sequence (A0A5F9DQW2 1-212): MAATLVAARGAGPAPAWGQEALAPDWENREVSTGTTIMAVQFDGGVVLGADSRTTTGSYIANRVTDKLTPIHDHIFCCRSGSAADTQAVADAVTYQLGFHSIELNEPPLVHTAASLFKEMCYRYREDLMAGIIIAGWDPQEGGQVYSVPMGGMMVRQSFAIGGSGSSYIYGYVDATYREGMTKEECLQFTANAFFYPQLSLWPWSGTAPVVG
Peptide text beside a SMILES is read from it. * marks the point of attachment. Boc = CC(C)(C)OC(=O)*; NHBn = c1ccc(CN*)cc1; Bn = c1ccc(C*)cc1
Experimental Endpoint: PA % inhibition (at 100 μM) (%)
Write it as a number; the unit % goes unstated.

A selection of reference data follows.
Compound	Experimental Value
COC(=O)[C@H](CC1C(=O)Nc2ccccc21)NC(=O)CNC(=O)[C@H](Cc1ccc(OCc2ccccc2)cc1)NC(=O)OC(C)(C)C (stereo partly shown) [NR38, Boc-Tyr(Bn)-Gly-Trp[O]—OCH3]	81
COC(=O)[C@H](Cc1c[nH]c2c(Br)cccc12)NC(=O)[C@H](C)NC(=O)[C@H](Cc1ccc(OC)c(I)c1)NC(=O)OC(C)(C)C	38
CNC(=O)[C@H](Cc1c[nH]c2c(-c3cc(C[C@H](NC(=O)OC(C)(C)C)C(=O)N[C@@H](C)C(=O)OC)ccc3OCc3ccccc3)cccc12)NC(=O)OCc1ccccc1	25
CC(C)(C)OC(=O)N[C@@H](Cc1ccc(OCc2ccccc2)cc1)C(=O)NCC(=O)N[C@@H](Cc1c[nH]c2ccccc12)C(=O)NCc1ccccc1 [PSV11R, N-Boc-Tyr(Bn)-Gly-Trp-NHCH2Ph] (Boc-Tyr(Bn)-Gly-Trp-NHBn)	59

Value wanted: PA % inhibition (at 100 μM) (rabbit 20S proteasome, post-acid (PA) activity (Oryctolagus cuniculus, UniProt A0A5F9DQW2)) of entry CC(C)(C)OC(=O)N[C@@H](Cc1ccc(OCc2ccccc2)cc1)C(=O)N[C@@H](CC(N)=O)C(=O)N[C@@H](Cc1c[nH]c2ccccc12)C(=O)NCc1ccccc1 [A416, N-Boc-Tyr(Bn)-Asn-Trp-NHCH2Ph] (Boc-Tyr(Bn)-Asn-Trp-NHBn)
35

----------
target: rabbit 20S proteasome, post-acid (PA) activity (Oryctolagus cuniculus); construct: other: 100 μM compound, pH 7.5, 30° C; other: pH 7.5, 30° C; test: Rabbit 20S proteasome fluorescent assay, post-acid activity (Z-LLE-βNA); assay type: biochemical; details: 100 μM compound, pH 7.5, 30° C.
Peptide text beside a SMILES is read from it. * marks the point of attachment. Boc = CC(C)(C)OC(=O)*; NHBn = c1ccc(CN*)cc1; Bn = c1ccc(C*)cc1
Experimental Endpoint: PA % inhibition (at 100 μM) (%)
Respond numerically; units are % and should not be typed.

Worked cases, answers included:
Compound	Target Desc	Experimental Value
CC(C)C[C@H](NC(=O)[C@H](Cc1ccc(OCc2ccccc2)cc1)NC(=O)OC(C)(C)C)C(=O)N[C@@H](Cc1c[nH]c2ccccc12)C(=O)NCCCCNC(=O)OC(C)(C)C [SP296P, N-Boc-Tyr(Bn)-Leu-Trp-NH(CH2)4NHBoc]	rabbit 20S proteasome, post-acid (PA) activity (Oryctolagus cuniculus)	59
CNC(=O)[C@H](Cc1c[nH]c2c(Br)cccc12)NC(=O)[C@H](C)NC(=O)[C@H](Cc1ccc(OCc2ccccc2)c(I)c1)NC(=O)OC(C)(C)C	rabbit 20S proteasome, post-acid (PA) activity (Oryctolagus cuniculus)	60
CC(C)C[C@H](NC(=O)[C@H](Cc1ccc(OCc2ccccc2)cc1)NC(=O)OC(C)(C)C)C(=O)N[C@@H](Cc1c[nH]c2ccccc12)C(=O)Nc1ccc(O)cc1 [A418P, N-Boc-Tyr(Bn)-Leu-Trp-NH(4-OH)Ph]	rabbit 20S proteasome, post-acid (PA) activity (Oryctolagus cuniculus)	32
COC(=O)[C@H](Cc1c[nH]c2c(Br)cccc12)NC(=O)[C@H](C)NC(=O)[C@H](Cc1ccc(OCc2ccccc2)c(I)c1)NC(=O)OC(C)(C)C	rabbit 20S proteasome, post-acid (PA) activity (Oryctolagus cuniculus)	32
COC(=O)[C@H](Cc1c[nH]c2c(Br)cccc12)NC(=O)CCNC(=O)C(Cc1ccc(OC)c(I)c1)NC(=O)OC(C)(C)C (some centres unmarked)	rabbit 20S proteasome, post-acid (PA) activity (Oryctolagus cuniculus)	40

Which measured PA % inhibition (at 100 μM) value corresponds to COC(=O)[C@H](Cc1c[nH]c2ccccc12)NC(=O)[C@H](C)NC(=O)[C@H](Cc1ccc(OCc2ccccc2)cc1)NC(=O)OC(C)(C)C [NR36, N-Boc-Tyr(Bn)-Ala-Trp-OCH3] (Boc-Tyr(Bn)-Ala-Trp-OMe) ?
39

# lookup: PA % inhibition (at 100 μM) of `COC(=O)[C@H](Cc1c[nH]c2c(Br)cccc12)NC(=O)[C@H](CC(C)C)NC(=O)[C@H](Cc1ccc(OC)c(I)c1)NC(=O)OC(C)(C)C`
20

Which PA % inhibition (at 100 μM) value is on record for C[C@H](NC(=O)[C@H](Cc1ccc(OCc2ccccc2)cc1)NC(=O)OC(C)(C)C)C(=O)N[C@@H](Cc1c[nH]c2ccccc12)C(=O)NCc1ccccc1 [SP304R, N-Boc-Tyr(Bn)-Ala-Trp-NHCCH2Ph] (Boc-Tyr(Bn)-Ala-Trp-NHBn) ?
45
